Consider the following molecules and their measured selectivity ratio readings.
Assay: Selectivity index, ratio of CC50 for HFF cells to EC50 for bloodstream form of Trypanosoma congolense IL3000
Type: toxicity
Details: human, read-out: Ratio CC50/EC50

Worked cases, answers included:
# SMILES_TEXT, MEASURED_QUANTITY, EXPERIMENTAL_RESULT
measured = [
    ("O=Cc1ccc(OCCCCCCCCCCCCCCBr)cc1O", "selectivity ratio", "> 4.6"),
    ("O=Cc1ccc(OCCCCCCCCCCCCCC[P+](c2ccccc2)(c2ccccc2)c2ccccc2)cc1O.[Br-]", "selectivity ratio", "> 740"),
    ("Cc1cc(O)ccc1C(=O)OCCCCCCCCCCCCCC[n+]1cccc2ccccc21.[Br-]", "selectivity ratio", "> 110"),
]

Query: Reported selectivity ratio for `O=C(OCCCCCCCCCCCCCC[P+](c1ccccc1)(c1ccccc1)c1ccccc1)c1ccc(O)cc1F.[Br-]` : what is it?
Result: > 11000

Query: Given the molecule `Cc1cc(O)cc(O)c1C(=O)OCCCCCCCCCCCCCC[P+](c1ccccc1)(c1ccccc1)c1ccccc1.[Br-]` , what is its reported selectivity ratio?
Result: > 40000

Query: // returns reported selectivity ratio for input `O=C(OCCCCCCBr)c1ccc(O)cc1O`
Result: > 2.7

Query: I am curious: what selectivity ratio value has been reported for `Cc1cc(O)ccc1C(=O)OCCCCCCCCCCCCCC[P+](c1ccccc1)(c1ccccc1)c1ccccc1.[Br-]` ?
Result: > 5130

Query: What does the data say about its selectivity ratio? Entry: `O=Cc1ccc(OCCCCCCCCCCCCCC[n+]2cccc3ccccc32)cc1O.[Br-]`
Result: > 95

The reported measurements were obtained from ChEMBL document CHEMBL4229345.
